- assayed-system: T1, soluble human CD3 epsilon chain (human, UniProt P07766 23-126)
- T1 construct: also called CD3ε
- T1 sequence (P07766 23-126 limits assumed): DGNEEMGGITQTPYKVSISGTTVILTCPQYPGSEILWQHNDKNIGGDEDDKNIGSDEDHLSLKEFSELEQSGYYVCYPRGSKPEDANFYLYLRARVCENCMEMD
- protocol-details: SPR
property: pKd
Would you please state pKd, meaning minus log10 of the concentration in mol/L, as a bare number?

Enquiry: Which pKd reading was recorded for the binder TR01H097-E22Hh/none-Hi-Kn010G3/L0011-k0 (antibody, V domains shown, one-arm) VH: QVQLVESGGGLVQPGRSLRLSCAASGFTFSNAWMHWVRQAPGKGLEWVAQIKDKSQNYALYYAESVKGRFTISRDDSKNSLYLQMNSLKTEDTAVYYCRYVHYAAGYGVDAWGQGTTVTVSS VL: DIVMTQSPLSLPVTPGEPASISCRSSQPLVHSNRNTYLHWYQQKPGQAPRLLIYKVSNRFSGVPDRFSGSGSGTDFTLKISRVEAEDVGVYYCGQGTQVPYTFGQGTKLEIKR ?
Return: 7.06

Continuing:
Enquiry: # query: pKd of entry TR01H047-E22Hh/none-Hi-Kn010G3/L0000-k0 (antibody, V domains shown, one-arm) VH: QVQLVESGGGLVQPGRSLRLSCAASGFTFSNAWMHWVRQAPGKGLEWVAQIKDKSNNYATYYAESVKGRFTISRDDSKNSIYLQMNSLKTEDTAVYYCRYVHYSASYGVDIWGQGTTVTVSS VL: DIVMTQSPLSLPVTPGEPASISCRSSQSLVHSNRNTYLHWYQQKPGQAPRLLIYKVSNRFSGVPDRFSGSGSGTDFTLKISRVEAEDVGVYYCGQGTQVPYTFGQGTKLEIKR
Return: 7.69

Enquiry: Look at this binder and give its reported pKd. TR01H025-E22Hh/none-Hi-Kn010G3/L0000-k0 (antibody, V domains shown, one-arm) VH: QVQLVESGGGLVQPGRSLRLSCAASGFTFSNAWMHWVRQAPGKGLEWVAQIKSKSQNYATYYAESVKGRFTISRADSKNSIYLQMNSLKTEDTAVYYCRYVHYSASYGVDIWGQGTTVTVSS VL: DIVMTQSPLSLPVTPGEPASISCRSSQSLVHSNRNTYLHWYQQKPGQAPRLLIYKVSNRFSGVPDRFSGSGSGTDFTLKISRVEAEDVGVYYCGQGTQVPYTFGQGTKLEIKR
Return: 7.41
